Overview of reported GI50 across a group of compounds:
# System: HOP-62
# RUN DESCRIPTION: NCI tumour cell line growth inhibition, 48 h
Activity calls are given as the source filed them. Cut-off read from the data, not from the text of the source: active = GI50 up to about 1.1 µM and inactive = higher.

Some solved cases for reference:
COMPOUND	GI50
COc1cc(C[C@@H](C)N)cc(OC)c1	> 100 µM (inactive)
COC(=O)/C(=N\NC(N)=O)C(C#N)c1ccccc1 (stereo unspecified)	> 100 µM (inactive)
O=C(c1ccccc1)c1c(C(F)(F)F)[n+]([O-])c2cc(Cl)c(Cl)cc2[n+]1[O-]	0.357 µM (active)
Cc1c2ccccc2cc2ccc3oc([N+](=O)[O-])cc3c12	> 100 µM (inactive)
CCOC(=O)NC1CC2CCC1(OC)C=C2C (stereo unspecified)	> 100 µM (inactive)

Kindly consider the entry below.
Query Cc1ccccc1C1OC(=O)c2ccc3ccccc3c21 (stereo unspecified) on HOP-62; GI50 returned: 0.442 µM (active)

====

Overview of reported GI50 across a group of molecules:
# System: K562
# RUN DESCRIPTION: NCI tumour cell line growth inhibition, 48 h
The source made the active and inactive calls. Cut-off read from the data, not from the text of the source: active = GI50 up to about 1.1 µM and inactive = higher.

MOLECULE	GI50
O=S1OC(c2ccccc2)(c2ccccc2)C(c2ccccc2)(c2ccccc2)O1	25.1 µM (inactive)

Query O=C(OCC1CCCN2CCCCC12)c1cccnc1 (stereo not drawn) on K562; GI50 returned: > 100 µM (inactive)

Query CCOC(=O)C1=CC(C)(C(=O)OCC)Nc2c(nc(OC)[nH]c2=O)N1 (stereo not drawn) on K562; GI50 returned: > 10 µM (inactive)

Query O=[N+]([O-])c1cc2[nH]nnc2c2nonc12 on K562; GI50 returned: 22.8 µM (inactive)

Query O=C(Nc1ccc(Cl)cc1)c1cc(S(=O)(=O)Nc2nc3cccnc3[nH]2)c(SSc2cc(Cl)c(C(=O)Nc3ccc(Cl)cc3)cc2S(=O)(=O)Nc2nc3cccnc3[nH]2)cc1Cl on K562; GI50 returned: 3.86 µM (inactive)

====

# Test system: HOP-92
# RUN DESCRIPTION: NCI tumour cell line growth inhibition, 48 h
The source made the active and inactive calls. Rule as the data show it: active = GI50 up to about 1.1 µM and inactive = higher.
EXPERIMENTAL READOUT: GI50

Record C/C(=N\NC(=S)Nc1ccc(C)cc1)c1nc2cccnc2[nH]1 , field GI50: 6.38 µM (inactive)

Record CCOC(=O)OC1C(Br)C2CCC1(C)C2(C)C (stereo unspecified) , field GI50: 13.2 µM (inactive)

Record CCN(CC)CCC(=O)/C=C/c1ccc(Cl)c(Cl)c1 , field GI50: > 10 µM (inactive)

====

# Tested on: SN12C
# RUN DESCRIPTION: NCI tumour cell line growth inhibition, 48 h
The source made the active and inactive calls. Rule as the data show it: active = GI50 up to about 1.1 µM and inactive = higher.
EXPERIMENTAL READOUT: GI50

Some solved cases for reference:
COMPOUND	GI50
C(#CP(c1ccccc1)c1ccccc1)P(C#CP(c1ccccc1)c1ccccc1)c1ccccc1	> 100 µM (inactive)
COc1cccc(-c2nc(-c3cnccn3)n(COCCO)n2)c1	> 100 µM (inactive)
C/C(=C/CO[Si](C)(C)C(C)(C)C)C(=O)N(C)c1ccccc1I	17.2 µM (inactive)
CN(C)c1nc(N(C)C)nc(N(C)CN(C)c2ccc(Cl)cc2)n1	> 100 µM (inactive)

Query O=C1NC(=O)C2C(=O)NC(=O)C1C2(c1ccccc1)c1ccc(Cl)cc1 (stereo not given) on SN12C; GI50 returned: > 100 µM (inactive)

Query C/C(=C\COc1ccc2ccc(=O)oc2c1)CCC(=O)C(C)(C)O on SN12C; GI50 returned: 24.2 µM (inactive)

Query Cc1ccc(S(=O)(=O)C2=Cc3ccccc3C2(O)c2ccccc2)cc1 (stereo not given) on SN12C; GI50 returned: 17.4 µM (inactive)

Query COc1cc(C[C@@]2(C)[C@@H]3CCC[C@H](CO)[C@@]3(C)CC[C@@H]2C)c(Cl)c(OC)c1 on SN12C; GI50 returned: 15.8 µM (inactive)

Query Cc1ccccc1C1OC(=O)c2ccc3ccccc3c21 (stereo not given) on SN12C; GI50 returned: 5.47 µM (inactive)

Query CC(C)C[P+](c1ccccc1)(c1ccccc1)c1ccccc1 on SN12C; GI50 returned: 12.3 µM (inactive)

====

# Tested on: HOP-92
# RUN DESCRIPTION: NCI tumour cell line growth inhibition, 48 h
Calls of active or inactive are those of the source. Cut-off read from the data, not from the text of the source: active = GI50 up to about 1.1 µM and inactive = higher.
EXPERIMENTAL READOUT: GI50

Some solved cases for reference:
COMPOUND	TESTED SYSTEM	GI50
COc1ccc(N2C(=O)[C@@H]3[C@@H]4CC(C)CC[C@@H]4c4c([nH]c5ccccc45)[C@@H]3C2=O)cc1 (stereo partly specified)	HOP-92	5.92 µM (inactive)
COc1ccc2c(c1)[n+]([O-])c1ccccc1[n+]2[O-]	HOP-92	47.1 µM (inactive)
Clc1ccc2c(NCCCCN3OC3c3ccccc3)ccnc2c1 (stereo unspecified)	HOP-92	10.5 µM (inactive)
C(#CP(c1ccccc1)c1ccccc1)P(C#CP(c1ccccc1)c1ccccc1)c1ccccc1	HOP-92	> 100 µM (inactive)
O=C(O)CC1(C(=O)O)CCCCC1	HOP-92	> 100 µM (inactive)
O=C(Nc1cccc(C(F)(F)F)c1)c1cc(-c2ccccc2)nc(S)n1	HOP-92	> 100 µM (inactive)
COC(=O)CCCC(=O)C1=NN(c2ccc(Cl)cc2)Cc2ccccc2N1	HOP-92	> 100 µM (inactive)
CCOC(=O)c1cc2c([nH]1)c(O)cc1c2ccn1Cc1ccccc1	HOP-92	13.5 µM (inactive)

Record O=S1OC(c2ccccc2)(c2ccccc2)C(c2ccccc2)(c2ccccc2)O1 , field GI50: 7.74 µM (inactive)

Record CC(C)=CCCC(C)[C@H]1CC(O)C2(C)C3=CCC4C(C)(C)[C@@H](O)CC[C@]4(C)C3=CC[C@]12C (stereo partly specified) , field GI50: 3.27 µM (inactive)

Record COC(=O)CC1CN(C(=O)OCc2ccccc2)C(C)(C)O1 (stereo unspecified) , field GI50: 94.6 µM (inactive)

Record O=C(NC(N1CCN(c2cc3c(cc2F)c(=O)c(C(=O)O)cn3C2CC2)CC1)(C(F)(F)F)C(F)(F)F)c1ccccc1 , field GI50: 33.8 µM (inactive)

Record CC1=C(C)CC2(CCCCC2=O)[S+]([O-])C1 (stereo unspecified) , field GI50: > 100 µM (inactive)

Record O=C(NCCCCCCNCc1cccc2ccccc12)Nc1cccc2ccccc12 , field GI50: > 100 µM (inactive)

Record CC(C)C[P+](c1ccccc1)(c1ccccc1)c1ccccc1 , field GI50: 3.32 µM (inactive)

Record N#Cc1nc(C2=C(Cl)c3ccccc3OC2)[nH]c1C#N , field GI50: 14.9 µM (inactive)

====

Overview of reported GI50 across a group of molecules:
# System: NCI-H460
# RUN DESCRIPTION: NCI tumour cell line growth inhibition, 48 h
Calls of active or inactive are those of the source. No stated cut-off is given here; in the data, active = GI50 up to about 1.1 µM and inactive = higher.

Record CSC1=NS(=O)(=O)c2cc(C(=O)NN(C)C(=O)c3cc4c(cc3Cl)SC(SC)=NS4(=O)=O)c(Cl)cc2S1 , field GI50: > 10 µM (inactive)

====

# Tested on: NCI-H226
# RUN DESCRIPTION: NCI tumour cell line growth inhibition, 48 h
Active and inactive are the calls of the source. Rule as the data show it: active = GI50 up to about 1.1 µM and inactive = higher.
EXPERIMENTAL READOUT: GI50

COMPOUND	EXPERIMENTAL READOUT	RESULT
COc1cc(C[C@@H](C)N)cc(OC)c1	GI50	> 100 µM (inactive)
CCOC(=O)C(Cc1c(C=O)[nH]c2ccccc12)(NC(=O)c1ccccc1)C(=O)OCC	GI50	19.5 µM (inactive)
COc1cc(C[C@@]2(C)[C@@H]3CCC[C@H](CO)[C@@]3(C)CC[C@@H]2C)c(Cl)c(OC)c1	GI50	15.8 µM (inactive)
COc1cccc(/C=N/NC(=O)CN(C)C)c1O	GI50	72.8 µM (inactive)

Query CCOC(=O)OC1C(Br)C2CCC1(C)C2(C)C (configuration not stated) on NCI-H226; GI50 returned: 12 µM (inactive)

Query CC(=O)OCC1OC(n2c(=O)n(-c3ccccc3)c(=O)c3cc(Br)cc(Br)c32)C(OC(C)=O)C(OC(C)=O)C1OC(C)=O (configuration not stated) on NCI-H226; GI50 returned: > 100 µM (inactive)

====

# System: ACHN
# RUN DESCRIPTION: NCI tumour cell line growth inhibition, 48 h
Active and inactive are the calls of the source. Rule as the data show it: active = GI50 up to about 1.1 µM and inactive = higher.
Would you mind answering with one of these outcomes? 1 for active, 0 for inactive

Would you please look over these solved cases?
MOLECULE	LABEL
COC(=O)CC1CN(C(=O)OCc2ccccc2)C(C)(C)O1 (centres undefined)	0
Clc1ccc2c(NCCCCN3OC3c3ccccc3)ccnc2c1 (centres undefined)	0
C=C1c2nc3ccccc3n2C=C(c2ccc(Cl)cc2)N1c1ccc(OCCN2CCCCC2)cc1	0

(Q) Outcome? Nc1nc(N)c2c(Cl)c(CNc3ccc(C(=O)NC(CC(=O)O)C(=O)O)cc3)ccc2n1 (centres undefined)
(A) 1

(Q) Outcome? CC1OC2OC3C(OCC(O)C3O)OC(=O)[C@]34CCC(C)(C)CC3C3=CCC5[C@@]6(C)C[C@H](O)[C@H](OC7OC(CO)C(O)C(O)C7OC7OCC(OC(=O)CC(C)(O)CC(=O)OC1C(O)C2O)C(O)C7O)[C@@](C)(CO)C6CC[C@@]5(C)[C@]3(C)CC4 (some centres undefined)
(A) 0

(Q) Outcome? CCN(CC)CCC(=O)/C=C/c1ccc(Cl)c(Cl)c1
(A) 0

(Q) Outcome? Cc1ccc(S(=O)(=O)C2=Cc3ccccc3C2(O)c2ccccc2)cc1 (centres undefined)
(A) 0

(Q) Outcome? CSc1cccc(NC(=O)OC2CCCCCCCCCCC2)c1
(A) 0

(Q) Outcome? COc1ccc(C(C)NNC(=O)c2ccncc2)cc1F (centres undefined)
(A) 0
